Biological target: UniProt P43405
Assay: Kinase profiling SYK
Type: biochemical
Settings: 100 micromolar inhibitor concentration; 100 is no change; read-out: residual kinase activity, SYK
Assign labels as follows, please: satisfied for remaining activity at 100 µM below 90%; not satisfied for remaining activity at 100 µM equal to or exceeding 90%.

Lookup: Is the reported remaining activity at 100 µM for CC(=O)Nc1nc2ccc([N+](=O)[O-])cc2s1 [Compound 13-10] strictly below 90%?
Found: not satisfied

Lookup: Again, but for CC(=O)Nc1nc2ccc(O)cc2s1 [Compound 01-71]
Found: satisfied

Lookup: Again, but for CC(=O)Nc1nc2ccc(C#N)cc2s1 [Compound 01-94]
Found: satisfied

Lookup: Again, but for CC(=O)Nc1nc2ccc(C(F)(F)F)cc2s1 [Compound 01-90]
Found: not satisfied

Lookup: Again, but for CC(=O)Nc1nc2cc(F)ccc2s1 [Compound 03-77]
Found: satisfied

Lookup: Again, but for CC(=O)Nc1nc2cc(C(F)(F)F)ccc2s1 [Compound 03-73]
Found: satisfied

Lookup: Again, but for COc1ccc2sc(NC(C)=O)nc2c1 [Compound 03-21]
Found: satisfied

----------
Biological target: MSK1 (Homo sapiens)
Sequence (O75582 whole entry, species assumed): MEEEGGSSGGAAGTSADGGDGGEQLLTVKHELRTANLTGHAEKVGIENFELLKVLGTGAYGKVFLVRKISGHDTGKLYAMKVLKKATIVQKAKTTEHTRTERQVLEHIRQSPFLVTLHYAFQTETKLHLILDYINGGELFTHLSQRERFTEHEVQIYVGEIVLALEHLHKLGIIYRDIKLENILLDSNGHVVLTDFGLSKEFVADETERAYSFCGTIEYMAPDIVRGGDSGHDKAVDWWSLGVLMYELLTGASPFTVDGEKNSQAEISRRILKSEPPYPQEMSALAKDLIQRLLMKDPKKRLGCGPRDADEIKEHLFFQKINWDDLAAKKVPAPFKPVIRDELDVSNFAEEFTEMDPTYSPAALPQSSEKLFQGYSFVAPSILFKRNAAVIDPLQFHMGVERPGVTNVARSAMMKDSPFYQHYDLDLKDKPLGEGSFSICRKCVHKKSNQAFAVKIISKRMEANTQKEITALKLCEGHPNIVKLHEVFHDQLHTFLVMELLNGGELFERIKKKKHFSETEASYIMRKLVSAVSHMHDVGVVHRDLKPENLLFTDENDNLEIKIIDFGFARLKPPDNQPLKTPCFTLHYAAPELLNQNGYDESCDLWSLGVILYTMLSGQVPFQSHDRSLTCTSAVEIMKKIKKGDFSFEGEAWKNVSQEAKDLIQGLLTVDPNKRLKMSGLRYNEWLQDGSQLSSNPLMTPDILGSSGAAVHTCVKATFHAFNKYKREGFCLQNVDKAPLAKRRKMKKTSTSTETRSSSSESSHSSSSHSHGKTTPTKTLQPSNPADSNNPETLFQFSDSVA
Assay: Kinase profiling MSK1
Type: biochemical
Settings: 100 micromolar inhibitor concentration; 100 is no change; read-out: residual kinase activity, MSK1
Assign labels as follows, please: YES for remaining activity at 100 µM below 90%; NO for remaining activity at 100 µM equal to or exceeding 90%.

Lookup: Is the reported remaining activity at 100 µM for CC(=O)Nc1nc2ccc(C(F)(F)F)cc2s1 strictly below 90%?
Found: YES

Lookup: Again, but for COc1ccc2sc(NC(C)=O)nc2c1
Found: NO

Lookup: Again, but for CC(=O)Nc1nc2ccc(O)cc2s1
Found: YES

Lookup: Again, but for CC(=O)Nc1nc2ccc(C#N)cc2s1
Found: YES

Lookup: Again, but for CC(=O)Nc1nc2cc(F)ccc2s1
Found: YES

----------
Biological target: PDGFRA (Homo sapiens)
Sequence (P16234 24-1089, species assumed): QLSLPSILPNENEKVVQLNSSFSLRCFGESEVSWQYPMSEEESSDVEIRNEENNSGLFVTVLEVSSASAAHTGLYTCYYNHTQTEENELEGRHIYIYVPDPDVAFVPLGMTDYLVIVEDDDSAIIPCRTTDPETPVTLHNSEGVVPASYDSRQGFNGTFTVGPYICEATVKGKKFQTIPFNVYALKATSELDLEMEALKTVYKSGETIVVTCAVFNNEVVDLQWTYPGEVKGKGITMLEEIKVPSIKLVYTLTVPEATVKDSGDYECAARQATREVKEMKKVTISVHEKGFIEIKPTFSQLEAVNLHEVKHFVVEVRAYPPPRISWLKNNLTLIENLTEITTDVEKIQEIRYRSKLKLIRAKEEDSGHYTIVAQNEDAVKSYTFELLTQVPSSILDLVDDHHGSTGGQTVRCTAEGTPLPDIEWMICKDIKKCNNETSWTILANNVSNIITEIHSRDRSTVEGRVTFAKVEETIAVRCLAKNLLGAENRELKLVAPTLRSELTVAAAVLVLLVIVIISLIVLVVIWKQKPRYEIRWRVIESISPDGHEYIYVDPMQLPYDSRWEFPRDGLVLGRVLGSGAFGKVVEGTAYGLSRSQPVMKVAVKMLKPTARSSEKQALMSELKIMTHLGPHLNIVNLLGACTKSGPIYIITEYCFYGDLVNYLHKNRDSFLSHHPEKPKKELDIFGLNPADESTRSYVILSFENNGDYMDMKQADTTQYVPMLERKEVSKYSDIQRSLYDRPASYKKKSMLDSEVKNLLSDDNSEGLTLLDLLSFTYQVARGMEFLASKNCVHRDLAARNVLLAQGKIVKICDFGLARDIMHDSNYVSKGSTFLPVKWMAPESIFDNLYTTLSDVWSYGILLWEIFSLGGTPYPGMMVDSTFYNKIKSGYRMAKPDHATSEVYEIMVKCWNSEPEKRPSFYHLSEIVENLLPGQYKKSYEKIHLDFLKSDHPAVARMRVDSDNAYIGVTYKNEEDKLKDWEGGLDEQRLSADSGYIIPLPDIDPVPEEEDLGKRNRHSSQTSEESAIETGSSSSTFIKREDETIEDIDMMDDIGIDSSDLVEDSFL
Assay: Kinase profiling PDGFRA
Format: biochemical
Conditions: 100 micromolar inhibitor concentration; 100 is no change; read-out: residual kinase activity, PDGFRA
Readout Kind: remaining activity at 100 µM (%)
Answer format: numeric, % implied, no suffix.

Lookup: Can you look up remaining activity at 100 µM on PDGFRA (Homo sapiens) for CC(=O)Nc1nc2ccc(C(F)(F)F)cc2s1 ?
Found: 30

Lookup: Again, but for CC(=O)Nc1nc2cc(C(F)(F)F)ccc2s1
Found: 34

Lookup: Again, but for CC(=O)Nc1nc2ccc(C#N)cc2s1
Found: 40

Lookup: Again, but for CC(=O)Nc1nc2cc(F)ccc2s1
Found: 59

Lookup: Again, but for COc1ccc2sc(NC(C)=O)nc2c1
Found: 87

----------
Target: RIPK2 (Homo sapiens, UniProt O43353)
Sequence (O43353 whole entry, species assumed): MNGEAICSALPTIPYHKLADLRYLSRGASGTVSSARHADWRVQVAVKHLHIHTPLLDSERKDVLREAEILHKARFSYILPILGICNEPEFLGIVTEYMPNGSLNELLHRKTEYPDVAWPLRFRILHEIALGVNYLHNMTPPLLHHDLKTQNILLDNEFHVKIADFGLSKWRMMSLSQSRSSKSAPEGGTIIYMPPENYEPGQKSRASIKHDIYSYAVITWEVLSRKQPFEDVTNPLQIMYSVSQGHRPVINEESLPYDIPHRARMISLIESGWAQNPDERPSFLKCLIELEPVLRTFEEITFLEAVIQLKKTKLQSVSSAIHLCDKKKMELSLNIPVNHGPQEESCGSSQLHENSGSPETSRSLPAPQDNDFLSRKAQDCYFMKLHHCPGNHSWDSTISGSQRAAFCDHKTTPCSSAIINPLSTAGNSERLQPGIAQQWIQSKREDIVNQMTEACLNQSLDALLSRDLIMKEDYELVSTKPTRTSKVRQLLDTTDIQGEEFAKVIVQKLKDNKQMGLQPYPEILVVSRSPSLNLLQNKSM
Test: Kinase profiling RIPK2
Assay type: biochemical
Conditions: 100 micromolar inhibitor concentration; 100 is no change
For each entry below, report its residual kinase activity, RIPK2 value.
Number, no unit, nothing else.

Lookup: Which value of residual kinase activity, RIPK2 has been reported for O=C(Nc1nc2ccc(C(F)(F)F)cc2s1)c1ccccc1 [Compound 03-99] in the records?
Found: 89

Lookup: Again, but for O=C(Nc1nc2ccc(O)cc2s1)c1ccncc1 [Compound 08-42]
Found: 30

Lookup: Again, but for CC(=O)Nc1nc2ccccc2s1 [Compound 03-32]
Found: 70

Lookup: Again, but for COc1ccc2nc(NC(=O)c3ccccc3)sc2c1 [Compound 03-98]
Found: 34

Lookup: Again, but for O=C(Nc1nc2cc(O)ccc2s1)c1cccnc1 [Compound 03-33]
Found: 20

Lookup: Again, but for O=C(Nc1nc2cc(O)ccc2s1)c1ccccn1 [Compound 03-13]
Found: 27

Lookup: Again, but for O=C(Nc1nc2ccc(O)cc2s1)c1ccccc1 [Compound 03-60]
Found: 12

Lookup: Again, but for N#Cc1ccc2nc(NC(=O)c3ccccc3)sc2c1 [Compound 03-106]
Found: 78

Lookup: Again, but for CC(=O)Nc1nc2cc(C)ccc2s1 [Compound 03-76]
Found: 60

Lookup: Again, but for O=C(Nc1nc2cc(O)ccc2s1)c1ccccc1 [Compound 03-102]
Found: 24

Hello, the source for this data is patent US10231954B2, in case you need it.
